# system: T1, IL-11-mFc ligand protein (human, UniProt P20809 22-199)
# T1 sequence (looked up): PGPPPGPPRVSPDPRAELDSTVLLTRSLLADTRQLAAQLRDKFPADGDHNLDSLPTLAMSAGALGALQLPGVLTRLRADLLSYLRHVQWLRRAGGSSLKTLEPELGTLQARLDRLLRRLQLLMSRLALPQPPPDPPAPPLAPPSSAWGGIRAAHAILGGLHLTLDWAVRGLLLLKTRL
# procedure summary: cell-based or functional assay
// values below are reported IC50 of inhibition of TIMP-1 secretion by MRC-5 cells stimulated with IL-11-mFc
Please respond with the number in µg/mL and leave the unit unwritten.

Here is how some binders turned out for IC50 of inhibition of TIMP-1 secretion by MRC-5 cells stimulated with IL-11-mFc.
Quick check: IC50 of inhibition of TIMP-1 secretion by MRC-5 cells stimulated with IL-11-mFc of humanized antibody molecule HA-I-A (antibody, human IgG1, kappa, L234A L235A, V domains shown, anti-IL-11 monoclonal antibody HA-I-A) VH: QVQLVESGGGLVKPGGSLRLSCAASGFTFSDYYMFWVRQAPGKGLEWVATISDGGTYTYYPDSVKGRFTISRDNAKNSLYLQMNSLRAEDTAVYYCARDGGYVSSPEAMDYWGQGTLVTVSS VL: DIVLTQSPSSLSASVGDRVTITCRASQDISNYLNWYQQKPGKAPKLLIYYTSRLHSGVPSRFSGSGSGTDFTFTISSLQPEDIATYYCQQGNTLPPTFGGGTKVEIKR ?
0.101

Please look up its IC50 of inhibition of TIMP-1 secretion by MRC-5 cells stimulated with IL-11-mFc: humanized antibody molecule HA-I-D (antibody, human IgG1, kappa, L234A L235A, V domains shown) VH: QVQLVESGGGLVKPGGSLRLSCAASGFTFSDYYMFWVRQAPGKGLEWVATISDGGTYTYYPDSVKGRFTISRDNAKNSLYLQMNSLRAEDTAMYYCARDGGYVSSPEAMDYWGQGTSVTVSS VL: DIVLTQSPSSLSASVGDRVTITCRASQDISNYLNWYQQKPGGAVKLLIYYTSRLHSGVPSRFSGSGSGTDYTFTISSLQPEDIATYFCQQGNTLPPTFGGGTKVEIKR
0.657

// IC50 of inhibition of TIMP-1 secretion by MRC-5 cells stimulated with IL-11-mFc lookup, key: humanized antibody molecule HA-I-B (antibody, human IgG1, kappa, L234A L235A, V domains shown) VH: QVQLVESGGGLVKPGGSLRLSCAASGFTFSDYYMFWVRQAPGKGLEWVSTISDGGTYTYYPDSVKGRFTISRDNAKNSLYLQMNSLRAEDTAVYYCARDGGYVSSPEAMDYWGQGTLVTVSS VL: DIVLTQSPSSLSASVGDRVTITCRASQDISNYLNWYQQKPGKAPKLLIYYTSRLHSGVPSRFSGSGSGTDYTFTISSLQPEDIATYYCQQGNTLPPTFGGGTKVEIKR
0.19

Now consider a different binder.
Would you kindly share the measured IC50 of inhibition of TIMP-1 secretion by MRC-5 cells stimulated with IL-11-mFc for humanized antibody molecule HA-I-C (antibody, human IgG1, kappa, L234A L235A, V domains shown) VH: QVQLVESGGGLVKPGGSLRLSCAASGFTFSDYYMFWVRQAPGKGLEWVATISDGGTYTYYPDSVKGRFTISRDNAKNSLYLQMNSLRAEDTAVYYCARDGGYVSSPEAMDYWGQGTLVTVSS VL: DIVLTQSPSSLSASVGDRVTITCRASQDISNYLNWYQQKPGKAVKLLIYYTSRLHSGVPSRFSGSGSGTDYTFTISSLQPEDIATYFCQQGNTLPPTFGGGTKVEIKR ?
0.343
